- SYSTEM UNDER TEST: angiotension I converting enzyme
- Sequence (P12821 30-1306): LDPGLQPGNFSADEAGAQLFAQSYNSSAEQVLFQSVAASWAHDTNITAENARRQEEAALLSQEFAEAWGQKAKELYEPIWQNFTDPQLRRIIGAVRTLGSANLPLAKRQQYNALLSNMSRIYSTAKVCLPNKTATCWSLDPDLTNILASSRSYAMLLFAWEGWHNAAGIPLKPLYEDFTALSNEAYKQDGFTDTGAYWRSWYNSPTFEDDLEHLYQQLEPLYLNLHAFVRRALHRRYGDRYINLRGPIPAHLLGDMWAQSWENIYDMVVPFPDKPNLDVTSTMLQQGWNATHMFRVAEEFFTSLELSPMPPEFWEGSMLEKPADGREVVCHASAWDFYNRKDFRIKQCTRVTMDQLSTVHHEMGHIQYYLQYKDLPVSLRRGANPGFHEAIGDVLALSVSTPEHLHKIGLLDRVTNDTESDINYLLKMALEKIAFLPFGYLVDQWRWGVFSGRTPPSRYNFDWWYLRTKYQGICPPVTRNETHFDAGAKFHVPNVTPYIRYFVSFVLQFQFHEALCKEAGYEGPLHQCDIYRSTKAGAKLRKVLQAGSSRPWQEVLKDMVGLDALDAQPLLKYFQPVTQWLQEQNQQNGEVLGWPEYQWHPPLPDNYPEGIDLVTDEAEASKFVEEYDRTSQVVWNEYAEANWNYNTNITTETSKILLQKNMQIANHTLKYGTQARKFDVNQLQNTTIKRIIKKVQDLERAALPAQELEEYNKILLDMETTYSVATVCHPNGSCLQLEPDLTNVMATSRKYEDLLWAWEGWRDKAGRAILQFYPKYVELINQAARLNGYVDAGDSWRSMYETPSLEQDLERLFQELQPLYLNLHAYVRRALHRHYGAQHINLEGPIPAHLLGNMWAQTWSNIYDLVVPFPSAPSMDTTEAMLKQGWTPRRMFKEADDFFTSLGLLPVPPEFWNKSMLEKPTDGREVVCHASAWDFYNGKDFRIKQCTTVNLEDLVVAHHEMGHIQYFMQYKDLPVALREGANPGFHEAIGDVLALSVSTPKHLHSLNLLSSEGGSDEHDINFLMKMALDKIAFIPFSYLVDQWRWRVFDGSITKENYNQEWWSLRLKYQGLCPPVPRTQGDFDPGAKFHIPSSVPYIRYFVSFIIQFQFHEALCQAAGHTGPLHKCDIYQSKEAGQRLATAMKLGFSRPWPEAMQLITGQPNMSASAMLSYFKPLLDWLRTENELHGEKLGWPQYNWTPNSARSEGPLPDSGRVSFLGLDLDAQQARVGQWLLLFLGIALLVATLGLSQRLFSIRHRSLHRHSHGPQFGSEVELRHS
- TEST SUMMARY: inhibition of angiotension I converting enzyme
- CONDITION INFO: read-out: IC50 toward angiotension I converting enzyme
MEASURED QUANTITY: pIC50
// pIC50 is dimensionless: -log10 of concentration (M)

[in] // fetch pIC50 given entry O=c1c2cc(O)c(O)cc2oc2c(O)c(O)ccc12 [3,4,6,7-tetrahydroxyxanthone, 3,4,6,7-Tetrahydroxyxanthone]
[out] 4.45

Data credit: patent US5495005A
